Target: MMP1 (Homo sapiens, UniProt P03956)
Sequence (P03956 100-469): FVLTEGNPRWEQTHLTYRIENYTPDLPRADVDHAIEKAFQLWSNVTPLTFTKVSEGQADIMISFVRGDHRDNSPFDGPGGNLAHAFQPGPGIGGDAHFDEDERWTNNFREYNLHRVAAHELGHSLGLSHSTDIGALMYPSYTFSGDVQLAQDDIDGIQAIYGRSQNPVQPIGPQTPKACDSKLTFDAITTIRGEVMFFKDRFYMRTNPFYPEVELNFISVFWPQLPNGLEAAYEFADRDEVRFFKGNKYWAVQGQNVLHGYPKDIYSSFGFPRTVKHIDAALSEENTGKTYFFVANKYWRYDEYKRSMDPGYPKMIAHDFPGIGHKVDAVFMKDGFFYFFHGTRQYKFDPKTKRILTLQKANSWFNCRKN
Assay: Activity of purified MMP on substrate (reporter release)
Assay type: biochemical
Conditions: Table 1b; MMP1
Measured Activity of selected substrates with MMPs, listed per entry.

Example entries begin here.
compound=COC(=O)CNC(=O)[C@H](CC(C)C)NC(=O)[C@@H](NC(=O)CNC(=O)[C@H](CC(C)C)NC(=O)[C@@H]1CCCN1C(C)=O)Nc1ccc(-c2nnc(-c3ccc(C)cc3)o2)cc1 recorded_result="0.00 units/s (molRXH/molEnz * s)"
compound=COC(=O)CCNC(=O)[C@H](CC(C)C)NC(=O)[C@@H](NC(=O)CNC(=O)[C@H](CC(C)C)NC(=O)[C@@H]1CCCN1C(C)=O)Nc1ccc([N+](=O)[O-])cc1 recorded_result="26.1 units/s (molRXH/molEnz * s)"
compound="COC(=O)CNC(=O)[C@H](CC(C)C)NC(=O)[C@@H](NC(=O)CNC(=O)[C@H](CC(C)C)NC(=O)[C@@H]1CCCN1C(C)=O)OCc1ccc(-c2ccccc2)cc1 (single isomer, unassigned)" recorded_result="35.4 units/s (molRXH/molEnz * s)"

Continue with the compound presented below.
Give its Activity of selected substrates with MMPs value. Item: CC(=O)N1CCC[C@H]1C(=O)N[C@@H](CC(C)C)C(=O)NCC(=O)N[C@@H](Nc1ccc([N+](=O)[O-])cc1)C(=O)N[C@@H](Cc1ccccc1)C(=O)Nc1ccccc1
2.48 units/s (molRXH/molEnz * s)

---

molecular target: MMP8 (Homo sapiens); construct: purchased Calbiochem; test: Activity of purified MMP on substrate (reporter release); assay type: biochemical; conditions: Table 1b; MMP8
Sequence (P22894 101-467): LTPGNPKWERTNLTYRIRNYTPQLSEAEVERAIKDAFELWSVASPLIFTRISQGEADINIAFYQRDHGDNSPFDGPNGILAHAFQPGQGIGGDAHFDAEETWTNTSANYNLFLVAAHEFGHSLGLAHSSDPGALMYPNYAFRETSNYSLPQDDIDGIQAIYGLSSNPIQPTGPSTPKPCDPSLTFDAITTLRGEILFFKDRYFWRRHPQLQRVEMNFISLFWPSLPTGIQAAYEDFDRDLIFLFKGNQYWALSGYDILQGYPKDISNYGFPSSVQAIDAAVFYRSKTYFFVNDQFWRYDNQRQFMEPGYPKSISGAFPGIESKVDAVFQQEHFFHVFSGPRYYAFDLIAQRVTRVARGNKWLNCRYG
experimental readout: Activity of selected substrates with MMPs

Known results for compounds:
compound="CC(=O)N1CCC[C@H]1C(=O)N[C@@H](CC(C)C)C(=O)NCC(=O)N[C@@H](Nc1ccc([N+](=O)[O-])cc1)C(=O)N[C@@H](Cc1ccccc1)C(=O)Nc1ccccc1 [Example 1.5]" recorded_result="11.4 units/s (molRXH/molEnz * s)"
compound="COC(=O)CNC(=O)[C@H](CC(C)C)NC(=O)[C@@H](NC(=O)CNC(=O)[C@H](CC(C)C)NC(=O)[C@@H]1CCCN1C(C)=O)OCc1ccc(-c2ccccc2)cc1 (single isomer, unassigned) [Example 1.3]" recorded_result="26.9 units/s (molRXH/molEnz * s)"
compound="COC(=O)CNC(=O)[C@H](CC(C)C)NC(=O)[C@@H](NC(=O)CNC(=O)[C@H](CC(C)C)NC(=O)[C@@H]1CCCN1C(C)=O)Nc1ccc(-c2nnc(-c3ccc(C)cc3)o2)cc1 [Example 1.4]" recorded_result="0.05 units/s (molRXH/molEnz * s)"

Shifting focus to the compound that follows.
Returns the measured Activity of selected substrates with MMPs for the input compound. Input: COC(=O)CCNC(=O)[C@H](CC(C)C)NC(=O)[C@@H](NC(=O)CNC(=O)[C@H](CC(C)C)NC(=O)[C@@H]1CCCN1C(C)=O)Nc1ccc([N+](=O)[O-])cc1 [Example 1.1]
120.4 units/s (molRXH/molEnz * s)
